- tested.on: Human HER3, endogenous, on human cancer cell lines (SK-Br-3, MCF7, BT-474) (human, UniProt P21860 20-1342)
- Sequence (P21860 20-1342): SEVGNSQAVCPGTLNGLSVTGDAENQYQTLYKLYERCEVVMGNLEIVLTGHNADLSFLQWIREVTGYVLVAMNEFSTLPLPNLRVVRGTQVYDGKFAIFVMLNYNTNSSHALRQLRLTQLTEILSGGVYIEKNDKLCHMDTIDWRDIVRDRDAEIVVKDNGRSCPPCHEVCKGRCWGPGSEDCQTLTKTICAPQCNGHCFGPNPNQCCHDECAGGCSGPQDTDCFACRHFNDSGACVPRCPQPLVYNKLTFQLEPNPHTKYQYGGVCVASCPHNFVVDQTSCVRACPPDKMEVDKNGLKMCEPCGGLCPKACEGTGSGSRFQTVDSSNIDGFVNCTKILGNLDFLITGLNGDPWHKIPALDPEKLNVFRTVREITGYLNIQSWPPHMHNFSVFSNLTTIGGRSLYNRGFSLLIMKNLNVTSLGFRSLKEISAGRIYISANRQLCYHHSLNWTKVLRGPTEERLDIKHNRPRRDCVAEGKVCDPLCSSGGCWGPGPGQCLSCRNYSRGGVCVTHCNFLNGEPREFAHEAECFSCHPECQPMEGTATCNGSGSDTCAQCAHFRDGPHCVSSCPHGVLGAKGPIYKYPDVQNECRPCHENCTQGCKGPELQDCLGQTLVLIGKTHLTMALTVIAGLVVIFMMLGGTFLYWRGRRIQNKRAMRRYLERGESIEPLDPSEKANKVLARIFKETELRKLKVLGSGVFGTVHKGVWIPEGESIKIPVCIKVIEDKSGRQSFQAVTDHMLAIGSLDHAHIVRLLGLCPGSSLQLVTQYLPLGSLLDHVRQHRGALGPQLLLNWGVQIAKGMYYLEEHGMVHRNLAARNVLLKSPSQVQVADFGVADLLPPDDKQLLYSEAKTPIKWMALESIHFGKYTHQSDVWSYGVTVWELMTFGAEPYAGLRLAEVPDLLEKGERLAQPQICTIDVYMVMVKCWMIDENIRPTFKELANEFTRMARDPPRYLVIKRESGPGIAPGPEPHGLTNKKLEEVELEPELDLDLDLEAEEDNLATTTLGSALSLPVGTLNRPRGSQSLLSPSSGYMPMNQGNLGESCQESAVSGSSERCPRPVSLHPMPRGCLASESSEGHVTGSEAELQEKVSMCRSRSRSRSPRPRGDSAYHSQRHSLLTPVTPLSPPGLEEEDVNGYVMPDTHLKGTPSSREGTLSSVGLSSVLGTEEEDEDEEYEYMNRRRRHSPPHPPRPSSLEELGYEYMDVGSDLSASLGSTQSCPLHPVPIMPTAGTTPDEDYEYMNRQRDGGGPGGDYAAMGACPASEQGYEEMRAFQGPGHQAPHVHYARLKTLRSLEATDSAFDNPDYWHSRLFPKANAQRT
- experiment.notes: cell-based or functional assay
Kindly state SK-Br-3 pHER3 IC50 for each of the entries shown.
Numeric only. Scale: pM

Dear colleague, I am looking for the recorded SK-Br-3 pHER3 IC50 of the following binder: MOR13766 (antibody, human IgG1, kappa, V domains shown, tested as IgG) VH: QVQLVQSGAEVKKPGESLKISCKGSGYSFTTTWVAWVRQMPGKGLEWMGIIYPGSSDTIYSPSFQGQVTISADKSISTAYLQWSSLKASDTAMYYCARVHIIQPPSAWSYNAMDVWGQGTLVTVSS VL: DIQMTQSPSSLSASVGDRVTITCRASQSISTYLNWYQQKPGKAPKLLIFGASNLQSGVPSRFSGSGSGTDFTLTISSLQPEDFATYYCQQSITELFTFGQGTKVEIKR
106

Which measured SK-Br-3 pHER3 IC50 value corresponds to MOR13759 (antibody, human IgG1, kappa, V domains shown, tested as IgG) VH: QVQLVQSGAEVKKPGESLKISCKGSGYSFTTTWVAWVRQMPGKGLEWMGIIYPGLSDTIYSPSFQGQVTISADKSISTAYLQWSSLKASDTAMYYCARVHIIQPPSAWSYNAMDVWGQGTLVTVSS VL: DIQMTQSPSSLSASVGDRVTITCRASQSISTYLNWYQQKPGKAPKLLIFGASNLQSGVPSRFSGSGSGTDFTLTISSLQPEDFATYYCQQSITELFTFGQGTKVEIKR ?
124

I have this binder here, MOR12923 (antibody, human IgG1, kappa, V domains shown) VH: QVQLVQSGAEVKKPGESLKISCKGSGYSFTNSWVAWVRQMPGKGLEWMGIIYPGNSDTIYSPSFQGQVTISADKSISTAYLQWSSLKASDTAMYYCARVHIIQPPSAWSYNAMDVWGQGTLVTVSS VL: DIQMTQSPSSLSASVGDRVTITCRASQSISTYLNWYQQKPGKAPKLLIFGASNLQSGVPSRFSGSGSGTDFTLTISSLQPEDFATYYCQQSMYLPFTFGQGTKVEIKR , and I need its recorded SK-Br-3 pHER3 IC50.
70

What value of SK-Br-3 pHER3 IC50 has been recorded for this entry: MOR13868 (antibody, human IgG1, kappa, V domains shown, tested as IgG) VH: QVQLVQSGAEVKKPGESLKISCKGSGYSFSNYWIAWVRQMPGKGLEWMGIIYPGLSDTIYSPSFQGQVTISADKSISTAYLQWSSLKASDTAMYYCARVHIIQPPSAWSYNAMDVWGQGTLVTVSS VL: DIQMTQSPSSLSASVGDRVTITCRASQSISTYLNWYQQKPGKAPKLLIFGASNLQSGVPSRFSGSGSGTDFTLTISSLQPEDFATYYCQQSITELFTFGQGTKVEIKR
205

For the binder MOR13750 (antibody, human IgG1, kappa, V domains shown, tested as IgG) VH: QVQLVQSGAEVKKPGESLKISCKGSGYSFTSSWVAWVRQMPGKGLEWMGIIYPGGSDTIYSPSFQGQVTISADKSISTAYLQWSSLKASDTAMYYCARVHIIQPPSAWSYNAMDVWGQGTLVTVSS VL: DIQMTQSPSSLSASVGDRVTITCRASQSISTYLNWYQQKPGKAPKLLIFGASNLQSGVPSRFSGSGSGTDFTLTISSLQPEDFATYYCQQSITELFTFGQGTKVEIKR , what SK-Br-3 pHER3 IC50 is on record?
1440
